# credit: ChEMBL document CHEMBL5058577

Tested on: Fibroblast
EXPERIMENTAL PROTOCOL: Multiplex assay against human fibroblast
Format: toxicity, cell-based
STATED CONDITIONS: 24 h, 1 µM, compound concentration 1 uM, replicate 1
Catalogue of Population Apoptotic (%) readings, one per entry.
Unit % implied. Number only.

- MOLECULE: "COCCn1c(C)c(C)s/c1=N\\C(=O)C1C(C)(C)C1(C)C"
  TARGET DESC: "Fibroblast"
  U: "%"
  Population Apoptotic (%): 64
- MOLECULE: "COc1cc2nc(N3CCN(C(=O)c4ccco4)CC3)nc(N)c2cc1OC.Cl [PRAZOSIN HYDROCHLORIDE]"
  TARGET DESC: "Fibroblast"
  U: "%"
  Population Apoptotic (%): 50
- MOLECULE: "O=C(NCCNCC(O)COc1ccc(O)cc1)N1CCOCC1.O=C(NCCNCC(O)COc1ccc(O)cc1)N1CCOCC1.O=C(O)/C=C/C(=O)O (stereo not given) [XAMOTEROL FUMARATE]"
  TARGET DESC: "Fibroblast"
  U: "%"
  Population Apoptotic (%): 68
- MOLECULE: "Cc1sc2c(c1C)C(c1ccc(Cl)cc1)=N[C@H](CC(=O)OC(C)(C)C)c1nnc(C)n1-2"
  TARGET DESC: "Fibroblast"
  U: "%"
  Population Apoptotic (%): 82

Shift focus to the following entry.
Return reported Population Apoptotic (%); argument: COc1ccc2[nH]c(I)c(CCNC(C)=O)c2c1 [IODOMELATONIN]
62

----------
System: U2OS
EXPERIMENTAL PROTOCOL: Multiplex assay against U2OS
Format: toxicity, cell-based
STATED CONDITIONS: human, 48 h, 10 µM, compound concentration 10 uM, replicate 2
Catalogue of Population Normal (%) readings, one per entry.
Unit % implied. Number only.

Recorded results for 6 compounds are shown here.
- COMPOUND: "Cc1sc2c(c1C)C(c1ccc(Cl)cc1)=N[C@H](CC(=O)OC(C)(C)C)c1nnc(C)n1-2"
  NUMBER: 98
- COMPOUND: "CN1CCN2c3ccccc3Cc3ccccc3C2C1.Cl (centres undefined) [MIANSERIN HYDROCHLORIDE]"
  NUMBER: 97
- COMPOUND: "COC(c1ccccc1)(c1ccccc1)[C@H](Oc1nc(C)cc(C)n1)C(=O)O"
  NUMBER: 100
- COMPOUND: "Cl.Cl.OCCOCCN1CCN(C(c2ccccc2)c2ccc(Cl)cc2)CC1 (centres undefined) [HYDROXYZINE HYDROCHLORIDE]"
  NUMBER: 94
- COMPOUND: "COc1cc2nc(N3CCN(C(=O)c4ccco4)CC3)nc(N)c2cc1OC.Cl [PRAZOSIN HYDROCHLORIDE]"
  NUMBER: 97
- COMPOUND: "Cc1cc(=O)n(C)c2cc(N3C(=O)CC[C@H](NS(=O)(=O)CC(C)C)[C@H]3c3ccc(Cl)cc3)ccc12"
  NUMBER: 94

Return reported Population Normal (%); argument: Cc1cc(O)c(-c2ccc([C@@H](C)CN(C)C)cc2)c2c1[nH]c(=O)c1sccc12
84

Return reported Population Normal (%); argument: COc1ccc2[nH]c(I)c(CCNC(C)=O)c2c1
99

Return reported Population Normal (%); argument: Cc1nn(C)c2nc(NNC(=O)Nc3cc(Cl)nc(Cl)c3)cc(C(C)C)c12
93
